Molecular target: Fyn SH3 (Homo sapiens, UniProt P06241)
Sequence (P06241 79-146): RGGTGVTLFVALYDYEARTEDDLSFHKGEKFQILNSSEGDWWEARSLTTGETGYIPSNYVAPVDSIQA
Assay: NMR titration
reportedProperty: Kd (µM)
Quick reminder: number only, in µM, skip the unit.

{"binder": "ERPGSKEEVDEDRDV [Tau 210-224]", "Kd / µM": 163}
{"binder": "PSGTGPEDTEGGRHA [Tau 170-184]", "Kd / µM": 127}

Task: Return the recorded Kd value; entry: QDGRPPQTAAREATS [Tau 241-255]
Result: 327

src = paper PMC12232886
